Listed next: entries and their corresponding IC50.
- Target Desc: human CGT (Homo sapiens, UniProt Q16880)
- Sequence (Q16880 21-541): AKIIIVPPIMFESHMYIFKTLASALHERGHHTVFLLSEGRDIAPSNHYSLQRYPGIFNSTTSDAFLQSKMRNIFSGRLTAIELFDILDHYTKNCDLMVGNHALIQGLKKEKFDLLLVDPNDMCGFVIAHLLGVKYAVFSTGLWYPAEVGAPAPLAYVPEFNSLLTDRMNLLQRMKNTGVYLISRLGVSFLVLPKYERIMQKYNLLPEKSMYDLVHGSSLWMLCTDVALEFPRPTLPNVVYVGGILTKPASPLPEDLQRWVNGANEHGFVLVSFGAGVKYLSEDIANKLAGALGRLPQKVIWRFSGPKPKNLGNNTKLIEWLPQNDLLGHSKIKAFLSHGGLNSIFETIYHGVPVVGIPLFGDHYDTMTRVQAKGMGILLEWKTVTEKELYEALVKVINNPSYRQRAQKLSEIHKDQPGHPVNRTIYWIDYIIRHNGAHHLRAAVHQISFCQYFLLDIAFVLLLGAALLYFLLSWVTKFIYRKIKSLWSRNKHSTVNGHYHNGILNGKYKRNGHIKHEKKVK
- Test Details: Assay 1: CGT Enzymatic Assay (RapidFire/MS/MS, 0.01% Tween 80)
- Format: biochemical
- Test Context: Table 1, Compounds of Formula (I) and Formula (II); CGT enzymatic assay; read-out: IC50

Compound | Reported
CCC1(C)N(c2ccc(Cl)cc2)C(=O)N(c2ccc(Cl)cc2)C1(O)c1cccc(OC(F)(F)F)c1 (stereo not drawn) | < 1 µM
C[C@@H]1N(c2ccc(Cl)cc2)C(=O)N(c2ccc(Cl)cc2)C1(O)c1cccc(C(C)(C)O)c1 (stereo partly drawn) | > 50 µM
CC1N(c2ccc(Cl)cc2)C(=O)N(c2ccc(Cl)cc2)C1(O)c1cccc(C(C)(C)O)c1 (stereo not drawn) | 1 to 10 µM
Cc1csc(-c2c(C)n(-c3ccc(Br)cc3)c(=O)n2-c2ccc(Br)cc2)c1 | 1 to 10 µM
CC(C)C1(c2cccc(C#N)c2)C(O)N(c2ccc(Br)cc2)C(=O)N1c1ccc(Br)cc1 (stereo not drawn) | 1 to 10 µM
O=C1N(c2ccc(Br)cc2)C(=O)C(O)(c2ccc(OC3CCCC3)cc2)N1c1ccc(Br)cc1 (stereo not drawn) | 50 to 100 µM
Cc1ccccc1C1(O)CN(c2ccc(Br)cc2)C(=O)N1c1ccc(Br)cc1 (stereo not drawn) | > 50 µM
O=C1N(c2ccc(Br)cc2)CC(O)(c2ccccn2)N1c1ccc(Br)cc1 (stereo not drawn) | > 50 µM
Cc1ccc(N2C(=O)N(c3ccc(C)cc3)C(O)(c3cccc(OC(F)(F)F)c3)C2(C)C)cc1 (stereo not drawn) | < 1 µM
O=C1N(c2ccc(Br)cc2)[C@H](c2ccccc2)C(O)(c2ccccc2)N1c1ccc(Br)cc1 (stereo partly drawn) | 1 to 10 µM

// fetch IC50 given entry CC1(c2ccccc2)N(c2ccc(Cl)cc2)C(=O)N(c2ccc(Cl)cc2)C1(O)c1ccccc1 (stereo not drawn) 1 to 10 µM

Identify IC50 associated with the compound CCC[C@@]1(C)N(c2ccc(Cl)cc2)C(=O)N(c2ccc(Cl)cc2)C1(O)c1cccc(OC(F)(F)F)c1 (single isomer, unassigned) 10 to 50 µM

Name the recorded IC50 of the compound listed here: O=C1N(c2ccc(Cl)cc2)[C@]2(CCOC2)[C@@](O)(c2cccc(OC(F)(F)F)c2)N1c1ccc(Cl)cc1 < 1 µM

Give the value of IC50 reported for the following: O=C1N(c2ccc(Br)cc2)C(=O)C(O)(c2nccs2)N1c1ccc(Br)cc1 (stereo not drawn) > 50 µM

Give reported IC50 value for CCC[C@@H]1N(c2ccc(Br)cc2)C(=O)N(c2ccc(Br)cc2)C1(O)c1cccc(Cl)c1 (stereo partly drawn) < 1 µM
